- Assay details: Drug metabolism in rat skin homogenate assessed as compound remaining after 30 mins by HPLC analysis
- Assay type: ADME, tissue-based, Zone of skin
- Experimental conditions: read-out: Drug metabolism
Parameter: remaining at 0.5 h (%)
Supply the numeric figure in %, leaving out any unit text.

Reported remaining at 0.5 h ( `CCC(=O)O[C@]1(C(=O)CO)CC[C@H]2[C@@H]3CCC4=CC(=O)CC[C@]4(C)[C@H]3CC[C@@]21C` ) = 98.5

---

- Assay details: Drug metabolism in human plasma assessed as compound remaining after 30 mins by HPLC analysis
- Type: ADME, cell-free
- Experimental conditions: read-out: Drug metabolism
Parameter: remaining at 0.5 h (%)
Entry rule: numbers only, all in %.

Record summary for `CCC(=O)O[C@]1(C(=O)CO)CC[C@H]2[C@@H]3CCC4=CC(=O)CC[C@]4(C)[C@H]3CC[C@@]21C` : reported remaining at 0.5 h = 93.2
